Experiment: in vitro
Details: PAMPA, pH 7.4
Description: Permeability of compound in PBS buffer at pH 7.4 by PAMPA-BBB assay
experimentalReadout: Papp

input: Would you kindly share the measured Papp for C#CCNC(=O)/C=C/c1ccc(O)c(OC)c1 ?
output: ≤ 0.5 ×10⁻⁶ cm/s

input: Would you kindly share the measured Papp for COc1cc(/C=C/c2n[nH]c(=O)o2)cc(OC)c1OC ?
output: ≤ 0.5 ×10⁻⁶ cm/s

input: Would you kindly share the measured Papp for O=c1[nH]nc(/C=C/c2cc(O)cc(O)c2)o1 ?
output: ≤ 0.1 ×10⁻⁶ cm/s

input: Would you kindly share the measured Papp for C#CCNC(=O)/C=C/c1ccc(O)c(O)c1 ?
output: ≤ 0.4 ×10⁻⁶ cm/s

input: Would you kindly share the measured Papp for O=c1[nH]nc(/C=C/c2cccc(O)c2)o1 ?
output: ≤ 0.5 ×10⁻⁶ cm/s

input: Would you kindly share the measured Papp for O=c1[nH]nc(/C=C/c2ccc(O)cc2)o1 ?
output: ≤ 0.7 ×10⁻⁶ cm/s
